# System: HS 578T breast
# protocol: NCI-60 one-dose screen, 48 h (100 = growth as untreated, 0 = no growth, -100 = all killed)
# condition.notes: 10 µM unless noted
# Experimental: Growth inhibition of the HS 578T human tumor cell line is measured as a screen for anti-cancer activity. Cells are grown in 96 well plates and exposed to the test compound for 48 hours. Compounds are tested at a single concentration, which is 10^-5 M for most compounds. The reported endpoint is percent growth (GI% or GIPRCNT), where numbers from 0 - 100% represent growth inhibition, and numbers from -100% - 0 represent cell death. For example, a value of 40 represents 60% growth inhibition. […]
The panel holds about 83,000 compounds, 20% with a hit somewhere; the sample as a whole holds those more often. Calls of active or inactive are those of the source. The calls were made as follows: active = growth percent below 10; inactive = the rest.
measured.property: growth

[[record]]
molecule = "Nc1c(C(=O)Nc2cccc(C(F)(F)F)c2)sc2nc3c(cc12)CCCCC3"
measured_property = "growth"
reported_value = "16.6% (inactive)"

[[record]]
molecule = "c1ccn2nnnc2c1"
measured_property = "growth"
reported_value = "105% (inactive)"

[[record]]
molecule = "COc1cc(C2C=C(C)N=C3SC=CN32)cc(OC)c1OC (stereo unspecified)"
measured_property = "growth"
reported_value = "103% (inactive)"

[[record]]
molecule = "O=C(/C=C/CN1CCOCC1)Nc1cc2c(Nc3ccc(F)c(Cl)c3F)ncnc2cc1OCCOC(F)F"
measured_property = "growth"
reported_value = "23.1% (inactive)"

[[record]]
molecule = "O=S(=O)(c1ccccc1)n1ccc(-c2ccc3c(c2)CCO3)n1"
measured_property = "growth"
reported_value = "102% (inactive)"

[[record]]
molecule = "Nc1nn2cc(-c3ccc(Cl)s3)nc2c2ccccc12"
measured_property = "growth"
reported_value = "96.7% (inactive)"

[[record]]
molecule = "Clc1ccc(-c2nc(-c3ccco3)cn3ccnc23)cc1"
measured_property = "growth"
reported_value = "74% (inactive)"

[[record]]
molecule = "CCCCCCCCCCCCCCCCCCOc1cccc(CCOP(=O)(O)OCC[N+](C)(C)C)c1"
measured_property = "growth"
reported_value = "93.1% (inactive)"

[[record]]
molecule = "COc1ccc(/C=C/c2nc(N3CCOCC3)c3cc(F)c(F)cc3n2)cc1OC"
measured_property = "growth"
reported_value = "70.1% (inactive)"

[[record]]
molecule = "Nc1ccc(S(=O)(=O)c2ccc(Cl)cc2)cc1"
measured_property = "growth"
reported_value = "96% (inactive)"

[[record]]
molecule = "COc1cc(OC)c(C(=O)/C=C/c2cccc(C#N)c2)c(OC)c1"
measured_property = "growth"
reported_value = "17.6% (inactive)"


* * *

# System: COLO 205 colon
# protocol: NCI-60 one-dose screen, 48 h (100 = growth as untreated, 0 = no growth, -100 = all killed)
# condition.notes: 10 µM unless noted
The panel holds about 83,000 compounds, 20% with a hit somewhere; the sample as a whole holds those more often.
measured.property: growth (%)

[[record]]
compound = "Cc1ccccc1C(=O)c1ccccc1C(=O)O"
reported_value = 115

[[record]]
compound = "Cc1cc(-c2ccccc2)c(C)n1Cc1ccc(Cl)cc1"
reported_value = 38.2

[[record]]
compound = "Cc1cc(Nc2nc(-c3ccc(F)cc3)nc3ccccc23)n[nH]1"
reported_value = 40.3

[[record]]
compound = "CC/C(=C(\\c1ccc(O)cc1)c1ccc(OCCN(C)CCN(C)C(=O)CCC(=O)c2c(C)[nH]c(/C=C3\\N=C(c4ccc[nH]4)C=C3OC)c2C)cc1)c1ccccc1"
reported_value = 89.8

[[record]]
compound = "COc1cc2nc(SCc3cc(OC)c(OC)c(OC)c3)n(Cc3ccccc3)c(=O)c2cc1OC"
reported_value = 7.38

[[record]]
compound = "COc1ccc(C2=CC(c3ccc(Oc4ccnc5cc(Cl)ccc45)c(OC)c3)c3c(nc(OC)[nH]c3=O)N2)cc1 (centres undefined)"
reported_value = 102

[[record]]
compound = "COc1cccc2cc(-c3cc4ccccc4[nH]3)/c(=N/C(=S)Nc3ccccc3)oc12"
reported_value = 98.1

[[record]]
compound = "CCCCCCCCCN1C(=O)/C(=c2\\sc3n(c2=O)C2C(NN=3)N(CC)C(=O)N2CC)c2ccccc21 (centres undefined)"
reported_value = 93.3

[[record]]
compound = "C=CCn1c(C)nc2ccc(Nc3nc(Nc4ccc(F)cc4)nc4ccccc34)cc21"
reported_value = 43.7

